Study System: human sigma 1 receptor (Homo sapiens)
Construct: expressed in transfected cells; host or cells: HEK-293
Sequence (Q99720 whole entry): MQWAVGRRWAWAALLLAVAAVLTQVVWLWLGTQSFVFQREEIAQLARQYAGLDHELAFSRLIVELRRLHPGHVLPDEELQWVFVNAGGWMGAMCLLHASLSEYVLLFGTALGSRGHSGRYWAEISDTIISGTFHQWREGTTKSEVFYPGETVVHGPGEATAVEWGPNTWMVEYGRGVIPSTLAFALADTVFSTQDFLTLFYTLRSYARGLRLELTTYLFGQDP
Test Protocol: Human sigma 1 receptor radioligand assay ([3H](+)-pentazocine, transfected HEK-293 membranes)
Type: binding
Protocol Conditions: 5 nM [3H](+)-pentazocine, transfected HEK-293 membranes, 37° C., 120 minutes; read-out: Ki
Property Name: Ki (nM)

Below, each entry is followed by its recorded Ki result.
{"Compound": "Cl.c1ccc(CN2C[C@@H]3OCc4c(-c5ccccn5)nnn4[C@H]3C2)cc1 [Example 33, hydrochloride]", "Unit Of Measurement": "nM", "Endpoint Value": 225}
{"Compound": "COc1ccc(CN2C[C@@H]3OCc4c(-c5ccc(F)cc5F)nnn4[C@H]3C2)cn1.Cl [Example 52, hydrochloride]", "Unit Of Measurement": "nM", "Endpoint Value": 272}
{"Compound": "Cl.Fc1ccccc1-c1nnn2c1CO[C@@H]1CN(C[C@H]3CCOC3)C[C@H]12 [Example 18, hydrochloride]", "Unit Of Measurement": "nM", "Endpoint Value": 171}
{"Compound": "Cl.Fc1ccc(CN2C[C@@H]3[C@@H](C2)OCc2c(-c4ccccc4F)nnn23)cn1 [Example 11, hydrochloride]", "Unit Of Measurement": "nM", "Endpoint Value": 241}
{"Compound": "Cc1occc1CN1C[C@@H]2[C@@H](C1)OCc1c(-c3ccc(F)cc3F)nnn12.Cl [Example 60, hydrochloride]", "Unit Of Measurement": "nM", "Endpoint Value": 102}

A = Cl.Fc1ccccc1-c1nnn2c1CO[C@H]1CN(C[C@H]3CCOC3)C[C@@H]12 [Example 15, hydrochloride]
B = Cc1occc1CN1C[C@@H]2OCc3c(-c4ccc(F)cc4F)nnn3[C@H]2C1.Cl [Example 61, hydrochloride]
Looking only at measured Ki, which entry is lower, A or B ? Mark your selection by writing its label.
A

###

solubility at 4 h values, listed per item
Test Protocol: Kinetic solubility
Type: physicochemical
Protocol Conditions: buffered aqueous solution, pH 7.4, aqueous buffer, kinetic from dmso stock, buffered aqueous solution at pH=7.4, 10 μL of 10 mM DMSO solution in 1 mL, stirred 4 hours, supernatant by liquid chromatography; read-out: Kin. Solub.

Below, each entry is followed by its recorded solubility at 4 h result.
{"Molecule": "Clc1cc(Cl)nc(N2CC3OCc4c(-c5ccccc5)nnn4[C@@H]3C2)n1 (stereo partly shown) [reference compound]", "solubility at 4 h": "< 1 µM"}
{"Molecule": "COc1ccc(CN2C[C@@H]3[C@@H](C2)OCc2c(-c4ccc(F)cc4Cl)nnn23)cn1.Cl", "solubility at 4 h": "> 10 µM"}
{"Molecule": "Cl.Fc1ccc(-c2nnn3c2CO[C@H]2CN(Cc4ccoc4)C[C@@H]23)c(F)c1", "solubility at 4 h": "> 10 µM"}

Attention now turns to another entry.
Fill in the blank: the reported solubility at 4 h of Cc1occc1CN1C[C@@H]2[C@@H](C1)OCc1c(-c3ccc(F)cc3F)nnn12.Cl is ____.
> 10 µM

###

Test Protocol: Kinetic solubility
Assay type: physicochemical
Protocol Conditions: aqueous buffer, kinetic from dmso stock; buffered aqueous solution at pH=7.4, 10 μL of 10 mM DMSO solution in 1 mL, stirred 4 hours, supernatant by liquid chromatography; read-out: Kin. Solub.
Property Name: solubility at 4 h

{"Molecule": "Cl.Fc1ccccc1-c1nnn2c1CO[C@@H]1CN(Cc3ccncc3)C[C@H]12 (racemic)", "solubility at 4 h": "> 10 µM"}
{"Molecule": "Cl.Fc1ccc(CN2C[C@@H]3[C@@H](C2)OCc2c(-c4ccncc4)nnn23)cc1 (racemic)", "solubility at 4 h": "> 10 µM"}
{"Molecule": "Cl.Fc1ccccc1-c1nnn2c1CO[C@@H]1CN(C3CCOCC3)C[C@H]12", "solubility at 4 h": "> 10 µM"}
{"Molecule": "Cl.Fc1ccc(CN2C[C@@H]3OCc4c(-c5ccccn5)nnn4[C@H]3C2)cc1", "solubility at 4 h": "> 10 µM"}
{"Molecule": "Cl.Fc1ccc(CN2C[C@@H]3[C@@H](C2)OCc2c(C4CCOCC4)nnn23)cc1", "solubility at 4 h": "> 10 µM"}
{"Molecule": "Cl.Clc1ccc(-c2nnn3c2CO[C@@H]2CN(CC4CCOCC4)C[C@H]23)c(Cl)c1", "solubility at 4 h": "> 10 µM"}

Attention now turns to another entry.
Fill in the blank: the reported solubility at 4 h of Cl.FC(F)(F)c1ccc(-c2nnn3c2CO[C@H]2CN(C4CCOCC4)C[C@@H]23)c(Cl)c1 is ____.
> 10 µM

###

Study System: human sigma 1 receptor (Homo sapiens)
Construct: expressed in transfected cells; host or cells: HEK-293
Test Protocol: Human sigma 1 receptor radioligand assay ([3H](+)-pentazocine, transfected HEK-293 membranes)
Type: binding
Property Name: Ki (nM)
Kindly provide the numeric value in nM only, without the unit symbol.

Form field - read-out: Ki; system: human sigma 1 receptor (Homo sapiens); submitted item: Cl.c1ccc(-c2nnn3c2CO[C@H]2CN(C4CCOCC4)C[C@@H]23)nc1 [Example 31, hydrochloride]
241

###

solubility at 4 h values, listed per item
Test Protocol: Kinetic solubility
Assay type: physicochemical
Protocol Conditions: buffered aqueous solution, pH 7.4, aqueous buffer, kinetic from dmso stock, buffered aqueous solution at pH=7.4, 10 μL of 10 mM DMSO solution in 1 mL, stirred 4 hours, supernatant by liquid chromatography; read-out: Kin. Solub.

Below, each entry is followed by its recorded solubility at 4 h result.
{"Compound": "Cl.Fc1ccc(-c2nnn3c2CO[C@H]2CN(CC4CCOCC4)C[C@@H]23)c(Cl)c1", "solubility at 4 h": "> 10 µM"}
{"Compound": "Fc1ccc(CN2C[C@@H]3[C@@H](C2)OCc2c(-c4ccc(F)cc4F)nnn23)cc1 [reference compound]", "solubility at 4 h": "2.13 µM"}
{"Compound": "Cl.Clc1ccc(-c2nnn3c2CO[C@H]2CN(CC4CCOCC4)C[C@@H]23)c(Cl)c1", "solubility at 4 h": "> 10 µM"}
{"Compound": "COc1ccc(CN2C[C@@H]3[C@@H](C2)OCc2c(-c4ccc(F)cc4F)nnn23)cn1.Cl", "solubility at 4 h": "> 10 µM"}
{"Compound": "Cl.Fc1ccccc1-c1nnn2c1CO[C@H]1CN(C[C@H]3CCOC3)C[C@@H]12", "solubility at 4 h": "> 10 µM"}

Attention now turns to another entry.
Fill in the blank: the reported solubility at 4 h of Cl.Clc1ccc(-c2nnn3c2CO[C@@H]2CN(CCC4CCOCC4)C[C@H]23)c(Cl)c1 is ____.
> 10 µM

###

Test Protocol: Kinetic solubility
Format: physicochemical
Protocol Conditions: buffered aqueous solution, pH 7.4, aqueous buffer, kinetic from dmso stock, buffered aqueous solution at pH=7.4, 10 μL of 10 mM DMSO solution in 1 mL, stirred 4 hours, supernatant by liquid chromatography; read-out: Kin. Solub.
solubility at 4 h values, listed per item

Below, each entry is followed by its recorded solubility at 4 h result.
{"Compound": "Cl.Fc1ccc(-c2nnn3c2CO[C@@H]2CN(CCC4CCOCC4)C[C@H]23)c(F)c1 [Example 40]", "solubility at 4 h": "> 10 µM"}
{"Compound": "Clc1ccc(-c2nnn3c2COC2CN(Cc4ccccc4)C[C@H]23)cc1 (some centres unmarked) [reference compound]", "solubility at 4 h": "0.93 µM"}
{"Compound": "Cl.Clc1ccc(-c2nnn3c2CO[C@H]2CN(C[C@H]4CCOC4)C[C@@H]23)c(Cl)c1 [Example 58]", "solubility at 4 h": "> 10 µM"}

Fill in the blank: the reported solubility at 4 h of Fc1ccc(CN2C[C@@H]3[C@@H](C2)OCc2c(-c4cccc(F)c4)nnn23)cc1 [drawing 113, reference compound] is ____.
3.4 µM

Fill in the blank: the reported solubility at 4 h of Cl.Fc1ccc(CN2C[C@@H]3OCc4c(C5CCOCC5)nnn4[C@H]3C2)cc1 [Example 65] is ____.
> 10 µM

Fill in the blank: the reported solubility at 4 h of Cl.Clc1ccc(-c2nnn3c2CO[C@H]2CN(C[C@@H]4CCOC4)C[C@@H]23)c(Cl)c1 [Example 56] is ____.
> 10 µM

Fill in the blank: the reported solubility at 4 h of Cl.Fc1ccc(-c2nnn3c2CO[C@H]2CN(C4CCOCC4)C[C@@H]23)c(F)c1 [Example 27] is ____.
> 10 µM

Fill in the blank: the reported solubility at 4 h of Cl.Fc1ccc(-c2nnn3c2CO[C@H]2CN(CCC4CCOCC4)C[C@@H]23)c(Cl)c1 [Example 48] is ____.
> 10 µM

###

Study System: human sigma 1 receptor (Homo sapiens)
Construct: expressed in transfected cells; host or cells: HEK-293
Test Protocol: Human sigma 1 receptor radioligand assay ([3H](+)-pentazocine, transfected HEK-293 membranes)
Assay type: binding
Protocol Conditions: 5 nM [3H](+)-pentazocine, transfected HEK-293 membranes, 37° C., 120 minutes; read-out: Ki
Property Name: Ki (nM)

{"Compound": "COc1ccc(CN2C[C@@H]3[C@@H](C2)OCc2c(-c4ccc(F)cc4Cl)nnn23)cn1.Cl [Example 49, hydrochloride]", "Ki, nM": 112}
{"Compound": "COc1ccc(CN2C[C@@H]3[C@@H](C2)OCc2c(-c4ccc(F)cc4F)nnn23)cn1.Cl [Example 51, hydrochloride]", "Ki, nM": 234}
{"Compound": "Cl.Fc1ccc(-c2nnn3c2CO[C@@H]2CN(CCC4CCOCC4)C[C@H]23)c(Cl)c1 [Example 47, hydrochloride]", "Ki, nM": 26.8}
{"Compound": "Cl.Cn1nccc1-c1nnn2c1CO[C@@H]1CN(Cc3ccc(F)cc3)C[C@H]12 [Example 66, hydrochloride]", "Ki, nM": 138}
{"Compound": "Cl.Clc1ccc(-c2nnn3c2CO[C@H]2CN(C[C@H]4CCOC4)C[C@@H]23)c(Cl)c1 [Example 58, hydrochloride]", "Ki, nM": 25.4}

P = Cc1cc(CN2C[C@@H]3[C@@H](C2)OCc2c(-c4ccc(F)cc4F)nnn23)c(C)o1.Cl [Example 23, hydrochloride]
Q = Cc1cc(CN2C[C@@H]3OCc4c(-c5ccc(F)cc5F)nnn4[C@H]3C2)c(C)o1.Cl [Example 22, hydrochloride]
R = Cl.Clc1ccc(-c2nnn3c2CO[C@@H]2CN(C[C@H]4CCOC4)C[C@H]23)c(Cl)c1 [Example 57, hydrochloride]
S = Cl.Clc1ccc(-c2nnn3c2CO[C@H]2CN(C[C@@H]4CCOC4)C[C@@H]23)c(Cl)c1 [Example 56, hydrochloride]
T = CCOc1ccc(CN2C[C@@H]3[C@@H](C2)OCc2c(-c4ccccc4F)nnn23)cn1.Cl [Example 19, hydrochloride]
Which order do these items take when sorted by rising Ki? List them. Returns: the labels arranged in the requested order.
S, P, T, Q, R

A = Cl.Fc1ccc(-c2nnn3c2CO[C@H]2CN(Cc4ccoc4)C[C@@H]23)c(F)c1 [Example 62, hydrochloride]
B = Cl.Clc1ccc(-c2nnn3c2CO[C@@H]2CN(C[C@@H]4CCOC4)C[C@H]23)c(Cl)c1 [Example 59, hydrochloride]
Looking only at measured Ki, which entry is lower, A or B ? Mark your selection by writing its label.
A
(A: 39.2 nM, B: 181 nM)

I = Cl.Fc1ccc(-c2nnn3c2CO[C@@H]2CN(CC4CCOCC4)C[C@H]23)c(Cl)c1 [Example 42, hydrochloride]
II = Cl.Fc1ccc(-c2nnn3c2CO[C@@H]2CN(Cc4ccc(F)nc4)C[C@H]23)c(Cl)c1 [Example 39, hydrochloride]
Of the two listed items, which has the higher Ki? First: I Second: II Mark your selection by writing its label.
II

1 = Cl.Fc1ccccc1-c1nnn2c1CO[C@H]1CN(C[C@@H]3CCOC3)C[C@@H]12 [Example 17, hydrochloride]
2 = Cl.Fc1ccc(-c2nnn3c2CO[C@H]2CN(C4CCOCC4)C[C@@H]23)c(F)c1 [Example 27, hydrochloride]
3 = Cl.Fc1ccc(-c2nnn3c2CO[C@H]2CN(CCC4CCOCC4)C[C@@H]23)c(Cl)c1 [Example 48, hydrochloride]
4 = Cl.Fc1ccccc1-c1nnn2c1CO[C@@H]1CN(C[C@@H]3CCOC3)C[C@H]12 [Example 16, hydrochloride]
Which order do these items take when sorted by rising Ki? List them. Returns: the labels arranged in the requested order.
3, 2, 1, 4

A = Cl.c1ccc(CN2C[C@@H]3[C@@H](C2)OCc2c(-c4ccccn4)nnn23)cc1 [Example 32, hydrochloride]
B = Cl.Clc1ccc(-c2nnn3c2CO[C@H]2CN(C4CCOCC4)C[C@@H]23)c(Cl)c1 [Example 46, hydrochloride]
C = COc1ccc(CN2C[C@@H]3OCc4c(-c5ccc(F)cc5Cl)nnn4[C@H]3C2)cn1.Cl [Example 50, hydrochloride]
Order the 3 compounds from highest to lowest Ki. Returns: the labels arranged in the requested order.
C, A, B

A = Cl.Fc1ccc(-c2nnn3c2CO[C@@H]2CN(Cc4ccoc4)C[C@H]23)c(F)c1 [Example 63, hydrochloride]
B = Cl.Clc1ccc(-c2nnn3c2CO[C@H]2CN(CCC4CCOCC4)C[C@@H]23)c(Cl)c1 [Example 53, hydrochloride]
Of the two listed items, which has the higher Ki? First: A Second: B Mark your selection by writing its label.
A
(A: 37.7 nM, B: 16.8 nM)
